Assign growth to each entry below.
Tested on: MOLT-4 leukemia
method-description: NCI-60 one-dose screen, 48 h (100 = growth as untreated, 0 = no growth, -100 = all killed)
measurement-conditions: 10 µM unless noted
Compounds without any hit were thinned out: in the full panel of roughly 83,000, 20% have a hit.
Numbers only, in %.

Provide growth for all items below, preserving their order.
1. S=c1[nH]cccc1-c1nnc2n1Nc1nc3ccc(Cl)cc3cc1CS2
2. CN(C)CCCn1c2c(c3ccc(-c4ccn[nH]4)cc3c1=O)C(=O)c1ccccc1-2
3. Cc1ccc(C(=O)Nc2ccccc2C(=O)N/N=C(\c2ccccc2)c2ccccn2)cc1

1: 92.3; 2: -0.72; 3: 15.8

Batch request: growth for each of the following molecules.
1. C[C@]12C[C@H]1CC[C@]1(C)[C@@H]2CC[C@@]23C[C@H](CC[C@H]21)[C@@](O)(CO)C3
2. O=C(CCN1CCCC1)Nc1ccc2c(Nc3ccccc3)c3ccccc3nc2c1
3. COC(=O)Nc1ccc(NC(=O)OC)cc1

96
-4.75
100

###

Tested on: RXF 393 renal
method-description: NCI-60 one-dose screen, 48 h
measurement-conditions: 10 µM unless noted
About 83,000 compounds went through this panel and 20% of them were active in at least one assay; those are over-represented in the sample as a whole. Calls of active or inactive are those of the source. How the source made its calls: active means growth percent below 10; inactive means the rest.
Your reply should match one of these outcome classes. active, inactive

- structure-smiles-string: "c1ccc(-c2nn(-c3ccccc3)[n+](-c3cccc4ccccc34)n2)cc1"
  qualitative-label: "inactive"
- structure-smiles-string: "O=C(/C=C/c1ccc[nH]1)c1ccc(-n2ccc(C(F)(F)F)n2)cc1"
  qualitative-label: "inactive"
- structure-smiles-string: "COc1ccc2c(c1)OC13Oc4cc(OC)ccc4C=C1CCCC3=C2"
  qualitative-label: "inactive"
- structure-smiles-string: "COc1cccc(NC(=O)c2cccc(-c3cc(=O)c4c(OC)c(OC)c(OC)cc4o3)c2)c1"
  qualitative-label: "inactive"

Next, consider the following compound.
Hi, do you know how `O=C(Nc1ccc2cc3ccc(NC(=O)N4CCCCCC4)cc3nc2c1)N1CCCCCC1` came out in this test? active

###

Tested on: HOP-92 NSCLC
method-description: NCI-60 one-dose screen, 48 h (100 = growth as untreated, 0 = no growth, -100 = all killed)
measurement-conditions: 10 µM unless noted
Compounds without any hit were thinned out: in the full panel of roughly 83,000, 20% have a hit. Calls of active or inactive are those of the source. Rule for the calls: active = growth percent below 10; inactive = the rest.
measured-attribute: growth

Consider the reported growth for these molecules:
- molecule: "NC(=O)c1ncn(C2OC(CO)C(O)C2O)n1 (stereo not given)"
  target-system: "HOP-92 NSCLC"
  reported-result: "79% (inactive)"
- molecule: "Cc1[nH]n(-c2cccc(Cl)c2)c(=O)c1/C=C1\\C=Nc2ccc(Br)cc21"
  target-system: "HOP-92 NSCLC"
  reported-result: "-16.9% (active)"
- molecule: "Cc1ccc2[nH]c(=O)cc(-n3nncc3COc3ccc(C=O)cc3)c2c1"
  target-system: "HOP-92 NSCLC"
  reported-result: "95.6% (inactive)"
- molecule: "CO[C@@H]1[C@H](N(C)C(=O)c2ccccc2)C[C@@H]2O[C@]1(C)n1c3ccccc3c3c4c(c5c6ccccc6n2c5c31)C(=O)NC4=O"
  target-system: "HOP-92 NSCLC"
  reported-result: "4.48% (active)"

What value of growth has been reported for the following molecule? C/C(=C(/c1ccccc1)c1ccc(OCC(O)CNCCN2CCOCC2)cc1)c1ccccc1 (stereo not given) 59.1% (inactive)
